Can you tell me IC50 for the items I'm about to list?
Target: human recombinant MAO-B (Homo sapiens)
Construct: purchased Sigma-Aldrich Química S.A., Alcobendas, Spain; host or cells: insect cells (BTI-TN-5B1-4) infected with recombinant baculovirus
Sequence (P27338 1-520): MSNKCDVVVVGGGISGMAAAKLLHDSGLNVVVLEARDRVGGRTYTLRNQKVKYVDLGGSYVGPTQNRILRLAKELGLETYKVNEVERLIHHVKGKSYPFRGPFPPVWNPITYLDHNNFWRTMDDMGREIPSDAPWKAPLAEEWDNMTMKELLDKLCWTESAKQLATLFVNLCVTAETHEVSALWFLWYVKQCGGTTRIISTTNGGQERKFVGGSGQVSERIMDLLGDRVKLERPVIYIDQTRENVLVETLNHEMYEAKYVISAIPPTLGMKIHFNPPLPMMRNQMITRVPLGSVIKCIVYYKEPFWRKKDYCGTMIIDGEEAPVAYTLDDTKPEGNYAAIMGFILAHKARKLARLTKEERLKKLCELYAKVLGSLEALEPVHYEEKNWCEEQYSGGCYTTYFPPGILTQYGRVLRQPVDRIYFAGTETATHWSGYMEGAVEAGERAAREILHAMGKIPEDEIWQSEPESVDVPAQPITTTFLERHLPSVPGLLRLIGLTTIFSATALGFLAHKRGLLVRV
Experiment: Determination of MAO isoforms activity (Amplex Red, p-tyramine), MAO-B
Type: biochemical
Settings: human recombinant MAO-B, p-tyramine 1 mM, mean ± spread of 5 experiments; read-out: IC50 hMAO-B
Answer format: numeric, µM implied, no suffix.

// query Checklist item: IC50 tested on human recombinant MAO-B (Homo sapiens), entry Cc1cc(=O)n(C)nc1CSC(=S)N1CCCCC1 , value?
// result 7.48

// query Checklist item: IC50 tested on human recombinant MAO-B (Homo sapiens), entry Cc1cc(=O)n(C)nc1CSC(=S)N1CCN(C(=O)c2ccccc2)CC1 , value?
// result 44.5

// query Checklist item: IC50 tested on human recombinant MAO-B (Homo sapiens), entry O=c1c(CSC(=S)N2CCOCC2)ccnn1Cc1ccccc1 , value?
// result 24.1

// query Checklist item: IC50 tested on human recombinant MAO-B (Homo sapiens), entry Cn1nc(CCSC(=S)N2CCCCC2)ccc1=O , value?
// result 11.9

// query Checklist item: IC50 tested on human recombinant MAO-B (Homo sapiens), entry Cn1nc(CCCSC(=S)N2CCCC2)ccc1=O , value?
// result 66.5

// query Checklist item: IC50 tested on human recombinant MAO-B (Homo sapiens), entry O=c1cc(CSC(=S)N2CCCC2)cnn1Cc1ccccc1 , value?
// result 9.68

// query Checklist item: IC50 tested on human recombinant MAO-B (Homo sapiens), entry CCN(CC)C(=S)SCc1cnn(Cc2ccccc2)c(=O)c1 , value?
// result 44.2

// query Checklist item: IC50 tested on human recombinant MAO-B (Homo sapiens), entry O=c1cc(CSC(=S)N2CCCCC2)cnn1Cc1ccccc1 , value?
// result 6.71

// query Checklist item: IC50 tested on human recombinant MAO-B (Homo sapiens), entry O=c1c(CSC(=S)N2CCCC2)ccnn1Cc1ccccc1 , value?
// result 34

// query Checklist item: IC50 tested on human recombinant MAO-B (Homo sapiens), entry Cc1cc(=O)n(C)nc1CSC(=S)N1CCOCC1 , value?
// result 38.6

Attribution: patent US10253000B2
